Recorded ELISA_avg by entry
Target: T1, recombinant human CD123-Fc (human, UniProt P26951 19-305)
T1 construct: not shown: Fc part of CD123-Fc
T1 sequence: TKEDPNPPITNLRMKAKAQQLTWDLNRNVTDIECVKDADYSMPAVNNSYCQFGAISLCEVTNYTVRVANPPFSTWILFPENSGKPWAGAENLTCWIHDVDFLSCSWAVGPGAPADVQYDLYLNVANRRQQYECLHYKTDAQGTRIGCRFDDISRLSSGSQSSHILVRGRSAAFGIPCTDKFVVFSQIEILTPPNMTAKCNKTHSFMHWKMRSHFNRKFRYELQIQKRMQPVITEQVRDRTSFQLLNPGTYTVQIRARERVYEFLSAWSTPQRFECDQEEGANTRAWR
Test: phage ELISA, captured CD123-Fc
Return type: number; implicit unit ratio A450 target/IgG1-Fc.

Solved entries (count: 4):
{"columns": ["BINDER", "UNITS_TEXT", "VALUE_MEASURED"],
 "data": [
  ["SEQ ID NO: 333 (designed binder, D domain, on phage) MGSWEEFAQRLYAIEWRLYALGGSEAELAAFEKEIAAFESELQAYKGKGNPEVEVLRYVAAQIRYHLQAYRHN", "ratio A450 target/IgG1-Fc", 16.9],
  ["SEQ ID NO: 409 (designed binder, D domain, on phage) MGSWVEFHMRLDAIYERLDALGGSEAELAAFEKEIAAFESELQAYKGKGNPEVEWLRTAAANIRVELQAYRHN", "ratio A450 target/IgG1-Fc", 9.1],
  ["SEQ ID NO: 500 (designed binder, D domain, on phage) MGSWYVFKDDLADIKYMLEALGGSEAELAWFEWEIANFEFDLQYYKGKGNPEVEALRKEAAAIRDELQAYRHN", "ratio A450 target/IgG1-Fc", 3.8],
  ["SEQ ID NO: 407 (designed binder, D domain, on phage) MGSWTEFYVRLDAIYERLDALGGSEAELAAFEKEIAAFESELQAYKGKGNPEVEWLRMVAANIRTELQAYRHN", "ratio A450 target/IgG1-Fc", 16]
]}

Next, consider the following binder.
Req: Using the record for SEQ ID NO: 553 (designed binder, D domain, on phage) MGSWEEFYMRLVAIHMRLRALGGSEAELAVFENYIAEFEEYLQYYKGKGNPEVEALTIEADAIGTELGAYRHN , report its ELISA_avg.
Resp: 4.4
